- Target Desc: AhR (Homo sapiens, UniProt P35869)
- Sequence (P35869 11-848): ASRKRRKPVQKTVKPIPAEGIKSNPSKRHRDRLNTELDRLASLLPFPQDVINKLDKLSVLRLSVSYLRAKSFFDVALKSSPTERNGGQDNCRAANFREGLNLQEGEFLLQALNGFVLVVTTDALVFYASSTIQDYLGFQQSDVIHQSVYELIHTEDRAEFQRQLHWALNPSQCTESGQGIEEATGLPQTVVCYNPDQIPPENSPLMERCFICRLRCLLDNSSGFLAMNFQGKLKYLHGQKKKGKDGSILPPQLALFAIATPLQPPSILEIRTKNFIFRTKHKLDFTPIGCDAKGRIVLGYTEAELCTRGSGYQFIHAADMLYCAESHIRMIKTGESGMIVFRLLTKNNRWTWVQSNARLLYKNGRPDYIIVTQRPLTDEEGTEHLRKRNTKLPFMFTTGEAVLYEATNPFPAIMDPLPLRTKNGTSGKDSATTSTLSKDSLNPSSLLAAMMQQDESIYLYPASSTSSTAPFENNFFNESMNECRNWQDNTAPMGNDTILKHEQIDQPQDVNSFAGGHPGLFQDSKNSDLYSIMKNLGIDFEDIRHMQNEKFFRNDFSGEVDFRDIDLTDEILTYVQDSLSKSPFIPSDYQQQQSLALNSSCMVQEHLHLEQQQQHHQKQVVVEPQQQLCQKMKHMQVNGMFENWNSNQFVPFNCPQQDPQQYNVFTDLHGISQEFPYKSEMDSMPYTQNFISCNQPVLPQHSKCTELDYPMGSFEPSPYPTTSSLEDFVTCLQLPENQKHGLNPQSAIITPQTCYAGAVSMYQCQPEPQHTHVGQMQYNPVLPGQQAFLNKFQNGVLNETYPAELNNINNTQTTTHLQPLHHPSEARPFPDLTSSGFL
- Assay Remarks: AhR inhibitory activity experiment, in vitro assay 1: HepG2-Lucia AhR cells, Lucia luciferase reporter (QUANTI-Luc)
- Condition Context: 24 hours incubation at 37° C., Lucia luciferase in supernatant, read-out: AhR inhibitory activity C50
Measured Endpoint: IC50

Summary: C[C@H](NC(=O)c1cc(-c2ccc(Cl)cc2)nc(-c2cnc(Cl)nc2)n1)c1ccnc(F)c1 , AhR (Homo sapiens, UniProt P35869), IC50 = > 1000 nM

Form field IC50 for item C[C@H](NC(=O)c1cc(-c2ccc(C(F)(F)F)cc2)nc(-c2cnn(C)c2)n1)c1ccc(F)c(F)c1 on AhR (Homo sapiens, UniProt P35869): < 50 nM

AhR (Homo sapiens, UniProt P35869) assay, molecule C[C@H](NC(=O)c1cc(-c2ccc(Cl)cc2)nc(-c2cnn(C)c2)n1)c1ccc(F)c(F)c1 , recorded IC50 = < 50 nM

Hey, AhR (Homo sapiens, UniProt P35869) data for Cn1cc(-c2nc(C(=O)N[C@H]3CCc4ncccc43)cc(-c3ccc(Cl)cc3)n2)cn1 : IC50 came out at < 50 nM

The value of IC50 recorded for COc1ccc(-c2nc(C(=O)N[C@@H](C)c3ccnc(F)c3)cc(-c3ccc(Cl)cc3)n2)cc1 when tested on AhR (Homo sapiens, UniProt P35869) reads > 1000 nM

Lab note: molecule C[C@H](NC(=O)c1cc(-c2ccc(F)cc2)nc(-c2cnn(C)c2)n1)c1ccnc(F)c1 tested on AhR (Homo sapiens, UniProt P35869); recorded IC50 was 50 to 200 nM

Value (IC50, AhR (Homo sapiens, UniProt P35869)) for record CC(=O)Nc1ccc([C@H](C)NC(=O)c2cc(-c3ccc(Cl)cc3)nc(-c3cnn(C)c3)n2)cc1F = < 50 nM
